Biological target: T1, human beta-Klotho (human, UniProt Q86Z14 1-1044)
T1 sequence (looked up): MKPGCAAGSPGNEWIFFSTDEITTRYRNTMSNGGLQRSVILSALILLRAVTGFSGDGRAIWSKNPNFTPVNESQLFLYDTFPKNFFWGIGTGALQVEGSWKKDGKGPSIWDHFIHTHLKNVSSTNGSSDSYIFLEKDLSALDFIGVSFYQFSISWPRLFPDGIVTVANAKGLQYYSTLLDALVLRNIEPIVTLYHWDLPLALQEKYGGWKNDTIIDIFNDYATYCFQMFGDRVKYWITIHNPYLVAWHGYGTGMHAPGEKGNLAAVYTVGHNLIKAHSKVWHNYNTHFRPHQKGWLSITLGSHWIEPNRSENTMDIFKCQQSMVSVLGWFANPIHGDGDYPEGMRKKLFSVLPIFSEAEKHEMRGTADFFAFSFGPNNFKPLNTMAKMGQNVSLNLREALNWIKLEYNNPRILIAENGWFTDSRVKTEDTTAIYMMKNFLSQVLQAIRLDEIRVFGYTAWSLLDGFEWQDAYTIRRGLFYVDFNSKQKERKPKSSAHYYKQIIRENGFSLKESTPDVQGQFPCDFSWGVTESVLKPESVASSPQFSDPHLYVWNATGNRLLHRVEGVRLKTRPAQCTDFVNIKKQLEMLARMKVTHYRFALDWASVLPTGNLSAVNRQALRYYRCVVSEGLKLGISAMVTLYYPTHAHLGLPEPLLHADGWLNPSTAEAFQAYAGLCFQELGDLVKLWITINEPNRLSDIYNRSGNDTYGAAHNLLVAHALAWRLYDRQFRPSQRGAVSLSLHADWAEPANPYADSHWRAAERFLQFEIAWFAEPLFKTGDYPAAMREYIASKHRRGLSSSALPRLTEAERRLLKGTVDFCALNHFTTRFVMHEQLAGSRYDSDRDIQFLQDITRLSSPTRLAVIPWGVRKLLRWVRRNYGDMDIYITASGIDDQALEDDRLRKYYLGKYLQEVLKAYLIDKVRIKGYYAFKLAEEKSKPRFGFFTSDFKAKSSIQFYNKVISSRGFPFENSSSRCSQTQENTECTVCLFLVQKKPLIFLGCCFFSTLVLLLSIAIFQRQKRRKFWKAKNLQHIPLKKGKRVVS
Assay: cell-based or functional assay
pERK-HEK293-Beta-klotho without HSA [EC50 (nM)] Median Value reference
Number only, in nM; omit the unit.

binder: (M168S) Ser-FGF21 (ligand) SHPIPDSSPLLQFGGQVRQRYLYTDDAQQTEAHLEIREDGTVGGAADQSPESLLQLKALKPGVIQILGVKTSRFLCQRPDGALYGSLHFDPEACSFRELLLEDGYNVYQSEAHGLPLHLPGNKSPHRDPAPRGPARFLPLPGLPPALPEPPGILAPQPPDVGSSDPLSSVGPSQGRSPSYAS
observed-measurement: 100

binder: (N121Q) Met-FGF21 (ligand) MHPIPDSSPLLQFGGQVRQRYLYTDDAQQTEAHLEIREDGTVGGAADQSPESLLQLKALKPGVIQILGVKTSRFLCQRPDGALYGSLHFDPEACSFRELLLEDGYNVYQSEAHGLPLHLPGQKSPHRDPAPRGPARFLPLPGLPPALPEPPGILAPQPPDVGSSDPLSMVGPSQGRSPSYAS
observed-measurement: 1

binder: (K56R, 59R, 69R, 122R, 166F, 167G, 168L, 169aT, 171L, 172E, 173A, 174V, 179F, 180E, 181R) Gly-FGF21 derivative of Example 49 (ligand, N-alpha-1-[2-(2-{2-[2-(2-{2-[(S)-4-carboxy-4-(17-carboxy-heptadecanoylamino)-butyrylamino]-ethoxy}-ethoxy)-acetylamino]-ethoxy}-ethoxy)-acetyl] on the N-terminal alpha amino group) GHPIPDSSPLLQFGGQVRQRYLYTDDAQQTEAHLEIREDGTVGGAADQSPESLLQLRALRPGVIQILGVRTSRFLCQRPDGALYGSLHFDPEACSFRELLLEDGYNVYQSEAHGLPLHLPGNRSPHRDPAPRGPARFLPLPGLPPALPEPPGILAPQPPDVGSSDPFGLVTGLEAVRSPSFER
observed-measurement: 1.2

binder: (K56R, K59R, K69R, K122R) Gly-FGF21 derivative of Example 53 (ligand, N-alpha-1-(2-{2-[2-(16-1H-tetrazol-5-yl-hexadecanoylamino)-ethoxy]-ethoxy}-acetyl) on the N-terminal alpha amino group) GHPIPDSSPLLQFGGQVRQRYLYTDDAQQTEAHLEIREDGTVGGAADQSPESLLQLRALRPGVIQILGVRTSRFLCQRPDGALYGSLHFDPEACSFRELLLEDGYNVYQSEAHGLPLHLPGNRSPHRDPAPRGPARFLPLPGLPPALPEPPGILAPQPPDVGSSDPLSMVGPSQGRSPSYAS
observed-measurement: 6.4

Problem: Provide only the value of recorded pERK-HEK293-Beta-klotho without HSA [EC50 (nM)] Median Value for M168L Met-FGF21 (ligand) MHPIPDSSPLLQFGGQVRQRYLYTDDAQQTEAHLEIREDGTVGGAADQSPESLLQLKALKPGVIQILGVKTSRFLCQRPDGALYGSLHFDPEACSFRELLLEDGYNVYQSEAHGLPLHLPGNKSPHRDPAPRGPARFLPLPGLPPALPEPPGILAPQPPDVGSSDPLSLVGPSQGRSPSYAS
Solution: 1.4

Problem: Please report pERK-HEK293-Beta-klotho without HSA [EC50 (nM)] Median Value for the following binder: (des N121) Met-FGF21 (ligand) MHPIPDSSPLLQFGGQVRQRYLYTDDAQQTEAHLEIREDGTVGGAADQSPESLLQLKALKPGVIQILGVKTSRFLCQRPDGALYGSLHFDPEACSFRELLLEDGYNVYQSEAHGLPLHLPGKSPHRDPAPRGPARFLPLPGLPPALPEPPGILAPQPPDVGSSDPLSMVGPSQGRSPSYAS
Solution: 1

Problem: Please report pERK-HEK293-Beta-klotho without HSA [EC50 (nM)] Median Value for the following binder: (Q28R, A31 E) Met-FGF21 (ligand) MHPIPDSSPLLQFGGQVRQRYLYTDDAQRTEEHLEIREDGTVGGAADQSPESLLQLKALKPGVIQILGVKTSRFLCQRPDGALYGSLHFDPEACSFRELLLEDGYNVYQSEAHGLPLHLPGNKSPHRDPAPRGPARFLPLPGLPPALPEPPGILAPQPPDVGSSDPLSMVGPSQGRSPSYAS
Solution: 1

Problem: Give pERK-HEK293-Beta-klotho without HSA [EC50 (nM)] Median Value for the following binder: (S71C, D102E, N121Q, L166F, S167G, M168L, 169aT, P171L, S172E, Q173A, G174V, Y179F, A180E, S181K) Gly-FGF21 (ligand) GHPIPDSSPLLQFGGQVRQRYLYTDDAQQTEAHLEIREDGTVGGAADQSPESLLQLKALKPGVIQILGVKTCRFLCQRPDGALYGSLHFDPEACSFRELLLEEGYNVYQSEAHGLPLHLPGQKSPHRDPAPRGPARFLPLPGLPPALPEPPGILAPQPPDVGSSDPFGLVTGLEAVRSPSFEK
Solution: 1.8

Problem: Quote pERK-HEK293-Beta-klotho without HSA [EC50 (nM)] Median Value reported for (A26E, K56R, K59R, K69R, D102T, N121Q, K122R, Y179F, A180E, S181R) Gly-FGF21 (ligand) GHPIPDSSPLLQFGGQVRQRYLYTDDEQQTEAHLEIREDGTVGGAADQSPESLLQLRALRPGVIQILGVRTSRFLCQRPDGALYGSLHFDPEACSFRELLLETGYNVYQSEAHGLPLHLPGQRSPHRDPAPRGPARFLPLPGLPPALPEPPGILAPQPPDVGSSDPLSMVGPSQGRSPSFER please.
Solution: 44
